Form: system (Cannabinoid receptor 1 (Homo sapiens, UniProt P21554)), quantity (Ki), values below.

Below are worked cases with known answers.
[[record]]
structure = "CCCCCn1cc(C(=O)NC2CCCCC2)c(=O)n2nc(-c3ccc(Cl)cc3)nc12"
attribute_measured = "Ki"
result = "4.72 µM"

[[record]]
structure = "CCCCCn1cc(C(=O)NC2CCCCC2)c(=O)n2nc(SC)nc12"
attribute_measured = "Ki"
result = "> 10 µM"

[[record]]
structure = "C=CCN(CC=C)c1nc2n(CCCCC)cc(C(=O)NC34CC5CC(CC(C5)C3)C4)c(=O)n2n1"
attribute_measured = "Ki"
result = "> 10 µM"

[[record]]
structure = "CCCCCn1cc(C(=O)NC2CCCCCC2)c(=O)n2nc(-c3ccc(C)cc3)nc12"
attribute_measured = "Ki"
result = "6.35 µM"


Turning now to a further record.
For the molecule "CCCCCn1cc(C(=O)NC23CC4CC(CC(C4)C2)C3)c(=O)n2nc(N3CCOCC3)nc12" , the measured Ki on Cannabinoid receptor 1 (Homo sapiens, UniProt P21554) was > 10 µM
